pIC50: −log10 of the molar value.
Literature-derived pIC50 for Dihydrofolate reductase (Homo sapiens) follows.

Solved entries (count: 8):
molecule	pIC50
Cc1nc(N)c2nc(CN(C)c3ccc(C(=O)NC(CCC(=O)O)C(=O)O)cc3)cnc2n1 (centres undefined)	< 4.70
Cc1[nH]c2nc(N)[nH]c(=O)c2c1Sc1ccc(Cl)c(Cl)c1	< 4.21
CCCc1c(Sc2ccc3ccccc3c2)[nH]c2nc(N)nc(N)c12	< 4.82
CC(C)c1c(Sc2ccc3ccccc3c2)[nH]c2nc(N)nc(N)c12	< 4.54
Nc1nc(N)c2cc3c(nc2n1)CCN(Cc1ccc(Cl)c(Cl)c1)C3	< 4.59
COc1ccc(OC)c(Sc2[nH]c3nc(N)nc(N)c3c2C(C)C)c1	< 4.55
CC(C)c1c(Sc2cccc3ccccc23)[nH]c2nc(N)nc(N)c12	< 4.54
CCCc1c(Sc2c(C)cccc2C)[nH]c2nc(N)nc(N)c12	5.52

Note: attention shifts to another entry.
For the molecule Nc1nc(N)c2c(COc3ccccc3F)cccc2n1 , what pIC50 is on record?
< 4.52
